Known pIC50 of a selection of compounds
# TEST_TARGET: KRAS G13D (Homo sapiens, UniProt P01116+P62937, G13D)
# Sequence (P01116 1-169 isoform P01116-2 G13D limits assumed): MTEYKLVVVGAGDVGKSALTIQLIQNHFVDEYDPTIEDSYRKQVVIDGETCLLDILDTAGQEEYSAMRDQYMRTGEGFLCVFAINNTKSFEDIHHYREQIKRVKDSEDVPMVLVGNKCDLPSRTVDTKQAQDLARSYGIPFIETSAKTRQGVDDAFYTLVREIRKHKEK
# Sequence (P62937 whole entry): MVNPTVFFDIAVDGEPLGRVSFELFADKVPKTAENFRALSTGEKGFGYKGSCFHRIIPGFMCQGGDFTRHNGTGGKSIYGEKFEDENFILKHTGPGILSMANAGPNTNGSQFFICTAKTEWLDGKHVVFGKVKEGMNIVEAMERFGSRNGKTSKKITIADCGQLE
# ASSAY_EXPLANATION: Disruption of BRAF RBD interaction with Ras (FRET / MOA assay, with Cyclophilin A)
# Type: biochemical
# CONDITION_NOTES: KRAS G13D; read-out: KRAS G13D FRET data IC50
pIC50: −log10 of the molar value.

CHEMICAL_STRUCTURE: CCN(CC)C1CN(C(=O)N(C)[C@H](C(=O)N[C@H]2Cc3nc(cs3)-c3ccc4c(c3)c(c(-c3cccnc3[C@H](C)OC)n4CC)CC(C)(C)COC(=O)[C@@H]3CCCN(N3)C2=O)C(C)C)C1
pIC50: 6.00 to 7.00
--
CHEMICAL_STRUCTURE: CCn1c(-c2cccnc2[C@H](C)OC)c2c3cc(ccc31)-c1cccc(c1)C[C@H](NC(=O)[C@H](C(C)C)N1CC[C@]3(CCN(C(=O)C#C[C@@H]4COCCN4C4COC4)C3)C1=O)C(=O)N1CCC[C@H](N1)C(=O)OCC(C)(C)C2
pIC50: < 5.00
--
CHEMICAL_STRUCTURE: CCn1c(-c2cccnc2[C@H](C)OC)c2c3cc(ccc31)-c1csc(n1)C[C@H](NC(=O)[C@H](C(C)C)N(C)C(=O)NC)C(=O)N1CCC[C@H](N1)C(=O)OCC(C)(C)C2
pIC50: 5.00 to 6.00
--
CHEMICAL_STRUCTURE: CCn1c(-c2cnccc2COC)c2c3cc(ccc31)-c1cc(O)cc(c1)C[C@H](NC(=O)[C@H](C(C)C)N(C)C(=O)[C@H]1CCN(C(=O)C3COC3)C1)C(=O)N1CCC[C@H](N1)C(=O)OCC(C)(C)C2
pIC50: 6.00 to 7.00
